Biological target: Neuronal acetylcholine receptor subunit alpha-7 (Homo sapiens, UniProt P36544)
Sequence (P36544 whole entry): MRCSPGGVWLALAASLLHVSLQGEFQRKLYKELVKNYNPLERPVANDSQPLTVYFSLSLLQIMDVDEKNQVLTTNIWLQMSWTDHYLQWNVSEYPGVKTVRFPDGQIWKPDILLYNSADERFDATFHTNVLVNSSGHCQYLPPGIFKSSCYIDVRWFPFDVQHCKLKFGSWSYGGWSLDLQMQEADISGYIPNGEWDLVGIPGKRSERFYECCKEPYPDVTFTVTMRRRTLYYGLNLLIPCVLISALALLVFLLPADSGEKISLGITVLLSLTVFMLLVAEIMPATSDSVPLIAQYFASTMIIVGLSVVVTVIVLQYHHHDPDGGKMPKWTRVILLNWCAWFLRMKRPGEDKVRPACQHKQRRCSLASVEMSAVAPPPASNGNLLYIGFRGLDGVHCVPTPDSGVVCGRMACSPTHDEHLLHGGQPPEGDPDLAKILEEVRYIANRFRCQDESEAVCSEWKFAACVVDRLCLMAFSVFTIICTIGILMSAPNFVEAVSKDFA
Assay: Agonist activity at human recombinant alpha7 nicotinic acetylcholine receptor expressed in xenopus laevis oocytes at 100 uM by parallel oocyte electrophysiological assay relative to acetylcholine
Assay type: functional, cell-based
READOUT_NAME: Activity (%)
Answer with a number only, understood to be in %.

As a guide, the following entries are already answered.
c1cncc(N2C[C@H]3CNC[C@H]3C2)c1: 129
CCOc1cncc(N2C[C@H]3CNC[C@H]3C2)c1: 37

Problem: Entry under review: "CN1C[C@@H]2CN(c3ccc(-c4ccccc4)nn3)C[C@@H]2C1" . Reported Activity?
Solution: 52
